- experimental.target: RSV F protein of recombinant mKate-RSV, subtype A (strain A2) (Respiratory syncytial virus subtype A …, UniProt P03420 26-574)
- protocol: cell-based or functional assay
readout.label: Neut IC50 subtype A

Completed entries (count: 3):
{"binder": "ADI-14477 (antibody, V domains shown, full-length IgG (yeast-expressed); also called Antibody Number 39; Ab# 39) VH: EVQLVESGPTLVKPTQTLTLTCSLSGFSLTTRGVGVGWIRQPPGKAPECLGFVYWDDDNRYSPSLRGRLTISKDTSKNQVVLTLTNMDPLDTATYYCVHSDLYDRGGYYLFYFDDWGQGTLVTVSS VL: DIQVTQSPSSLSASVGDRVTITCRASQPIASYLNWYQQKPGQAPKLLIYAASMLQSGAPSKFSGRGSGTDFTLTITTLQPEDFATYYCQQSYTFPYTFGQGTKVEIK", "Neut IC50 subtype A": "> 10 µg/mL"}
{"binder": "ADI-14464 (antibody, V domains shown) VH: QVQLVQSGAEVKKPGASVKVSCEASAYSFSGDYVHWVRQAPGQGLEWMGWIKAVNGGANYAQRFHGRVTMTTDSSRSTVYLELTRLTPDDTAVYFCAKDRAASVHVPAGEFDLWGQGTLVTVSS VL: DIQVTQSPSSLSASVGDRVSITCRASQSISNFLNWYRQRPGKAPELLIYAASTLQGGVPSRFSGSGSGTHFTLTISSLQPEDFATYYCQQSYTIPSITFGQGTRLEIK", "Neut IC50 subtype A": "> 10 µg/mL"}
{"binder": "ADI-14510 (antibody, V domains shown, full-length IgG (yeast-expressed); also called Antibody Number 71; Ab# 71) VH: QVQLQQWGAEVKKPGSSVKVSCKASGVALSSVAISWVRQAPGQGLEWMGGILPGFDKVRFAQEFENRATLTADTARDIAYMELSGLRSDDTAVYYCAIIDPQDCTSASCFWVNWLDPWGQGTLVTVSS VL: ETTLTQSPGTLTVSPGERATLSCRASQSIIRNNLAWYQQKPGQAPRLLIYAASNRATDIPDRFSGSGSGTDFTLTISRLEAQDFAVYFCQQYGTSPITFGQGTKVEIK", "Neut IC50 subtype A": "> 10 µg/mL"}

Consider the additional binder presented here.
Notebook: ADI-14440 (antibody, V domains shown, full-length IgG (yeast-expressed); also called Antibody Number 3; Ab# 3) VH: QVQLVQSGAEVKKPGSSVKVSCKASGGTINNVAISWLRQAPGQGLEWLGGNIPGFGKVRYSQQFETRLTLTADVSSDTAYMVLTSLRSEDTAVYYCAIIDPQLCTRASCFWVNWLDPWGQGTTVTVSS VL: DIVMTQSPGTLSVSPGESAALSCGASESILSDSLAWYQHKPGQAPRLLIYGASSRAAGIPDRFSGSGSGTDFTLTISRLEPEDFAVYFCQQFGALPITFGQGTRLEIK , Neut IC50 subtype A read as > 10 µg/mL

Recorded values, source patent US20250313612A1.
